study_target: UniProt P09917
Sequence (P09917 whole entry): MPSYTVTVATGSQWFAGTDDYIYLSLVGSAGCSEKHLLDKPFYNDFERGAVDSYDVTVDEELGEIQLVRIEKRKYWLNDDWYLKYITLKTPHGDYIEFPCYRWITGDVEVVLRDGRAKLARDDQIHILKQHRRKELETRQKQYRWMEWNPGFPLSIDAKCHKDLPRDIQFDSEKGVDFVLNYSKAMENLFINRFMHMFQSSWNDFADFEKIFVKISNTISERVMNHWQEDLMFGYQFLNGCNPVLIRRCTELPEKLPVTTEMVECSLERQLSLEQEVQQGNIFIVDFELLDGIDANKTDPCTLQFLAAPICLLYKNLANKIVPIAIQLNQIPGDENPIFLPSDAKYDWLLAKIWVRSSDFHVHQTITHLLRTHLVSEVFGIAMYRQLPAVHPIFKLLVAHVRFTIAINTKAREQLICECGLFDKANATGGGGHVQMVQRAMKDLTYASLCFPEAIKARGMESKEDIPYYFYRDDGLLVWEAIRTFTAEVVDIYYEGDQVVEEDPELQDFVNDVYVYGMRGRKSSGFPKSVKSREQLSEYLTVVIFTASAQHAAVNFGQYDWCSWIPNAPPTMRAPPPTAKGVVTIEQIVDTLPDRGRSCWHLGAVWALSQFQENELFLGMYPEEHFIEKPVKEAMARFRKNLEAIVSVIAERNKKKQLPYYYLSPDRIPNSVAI
assay_protocol: Inhibition of 5-lipoxygenase in human neutrophil assessed as remaining activity at 10 uM preincubated for 15 mins before substrate arachidonic acid addition measured after 10 mins by HPLC method
property_measured: Activity (%)
Numbers only, in %.

Sample records with Activity:
query_smiles=O=C(O)c1ccc(Cn2cc(-c3ccc(-c4ccccc4C(=O)O)cc3)nn2)c([N+](=O)[O-])c1 study_target="UniProt P09917" value_observed=65.9
query_smiles=CN(C)c1ccc2cc(S(=O)(=O)Nc3ccc(-c4ccc(-c5cn(Cc6ccc(C(=O)O)cc6[N+](=O)[O-])nn5)cc4)cc3)ccc2c1 study_target="UniProt P09917" value_observed=96.5

Give Activity for each listed item.
1. O=C(O)c1ccc(Cn2cc(-c3ccc(-c4cccc(C(=O)N5CCOCC5)c4)cc3)nn2)c([N+](=O)[O-])c1
2. O=C(O)c1ccc(Cn2cc(-c3ccc(-c4cccs4)cc3)nn2)c([N+](=O)[O-])c1
3. COc1cc(-c2ccc(-c3cn(Cc4ccc(C(=O)O)cc4[N+](=O)[O-])nn3)cc2)cc(OC)c1OC
4. COc1ccc(-c2ccc(-c3cn(Cc4ccc(C(=O)O)cc4[N+](=O)[O-])nn3)cc2)cc1CN1CCOCC1
5. O=C(O)c1ccc(Cn2cc(-c3ccc(-c4cccc(O)c4)cc3)nn2)c([N+](=O)[O-])c1
6. O=C(O)c1ccc(Cn2cc(-c3ccc(-c4ccc(O)cc4)cc3)nn2)c([N+](=O)[O-])c1

[125, 89.7, 90.2, 111, 114, 108]

Give Activity for each listed item.
1. O=C(O)c1cccc(-c2ccc(-c3cn(Cc4ccc(C(=O)O)cc4[N+](=O)[O-])nn3)cc2)c1
2. Nc1ccc(-c2ccc(-c3cn(Cc4ccc(C(=O)O)cc4[N+](=O)[O-])nn3)cc2)cc1

[124, 100]

###

Provide the reported Activity of each item.
study_target: Prostaglandin E synthase (Homo sapiens)
Sequence (whole entry): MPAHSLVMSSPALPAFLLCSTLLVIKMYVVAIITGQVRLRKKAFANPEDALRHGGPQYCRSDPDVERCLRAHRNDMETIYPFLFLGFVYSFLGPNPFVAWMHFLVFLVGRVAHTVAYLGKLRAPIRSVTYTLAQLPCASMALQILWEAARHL
assay_protocol: Inhibition of mPGES1 in IL-1beta-stimulated human A549 cell assessed as remaining activity measuring of PGE2 level at 10 uM preincubated for 15 mins before substrate addition by RP-HPLC method
Answers are plain numbers, in %.

Sample records with Activity:
query_smiles=Nc1ccc(-c2ccc(-c3cn(Cc4ccc(C(=O)O)cc4[N+](=O)[O-])nn3)cc2)cc1 study_target="Prostaglandin E synthase (Homo sapiens)" value_observed=65.5
query_smiles=O=C(O)c1ccc(Cn2cc(-c3ccc(-c4cccc(O)c4)cc3)nn2)c([N+](=O)[O-])c1 study_target="Prostaglandin E synthase (Homo sapiens)" value_observed=55.6
query_smiles=O=C(O)c1ccc(Cn2cc(-c3ccc(-c4cccc(C(=O)N5CCOCC5)c4)cc3)nn2)c([N+](=O)[O-])c1 study_target="Prostaglandin E synthase (Homo sapiens)" value_observed=88.9
query_smiles=O=C(O)c1ccc(S(=O)(=O)n2cc(-c3ccc(-c4ccccc4COc4cc(C(F)(F)F)ccc4Cl)cc3)nn2)cc1 study_target="Prostaglandin E synthase (Homo sapiens)" value_observed=78.6
query_smiles=O=C(O)c1ccc(Cn2cc(-c3ccc(-c4ccc(O)cc4)cc3)nn2)c([N+](=O)[O-])c1 study_target="Prostaglandin E synthase (Homo sapiens)" value_observed=74.2

Give Activity for each listed item.
1. COc1cc(-c2ccc(-c3cn(Cc4ccc(C(=O)O)cc4[N+](=O)[O-])nn3)cc2)cc(OC)c1OC
2. CN(C)c1ccc2cc(S(=O)(=O)Nc3ccc(-c4ccc(-c5cn(Cc6ccc(C(=O)O)cc6[N+](=O)[O-])nn5)cc4)cc3)ccc2c1

[54.3, 72.5]

Cited source: ChEMBL document CHEMBL2040712
